Data provenance: PubChem BioAssay (NCI)

System: DU-145 prostate
assay-remarks: NCI tumour cell line growth inhibition, 48 h
readout-type: TGI

Here are 4 molecules together with their reported answers.
INSERT INTO assay_data (molecule, readout_type, readout_value) VALUES
  ('O=C(Nc1ccc(-c2ccccc2)cc1)C1CCN(S(=O)(=O)c2ccccc2Cl)CC1', 'TGI', '> 100 µM'),
  ('Cc1ccc([C@H]2CC(=O)C[C@H](c3ccc(C)cc3)C23C(=O)c2ccccc2C3=O)cc1', 'TGI', '> 100 µM'),
  ('O=C1NC(N/N=C/C(O)C(O)C(O)CO)=N/C1=C\c1ccco1 (configuration not stated)', 'TGI', '> 100 µM'),
  ('Nn1c(CCCCCCCCc2nnc(COc3ccc(Cl)cc3)n2N)nnc1COc1ccc(Cl)cc1', 'TGI', '> 100 µM');

Could I get TGI for every one of these entries?
1. O=C(Nc1ccc(-n2cc(-c3ccncc3)c(-c3ccc(Cl)c(O)c3)n2)cc1)Nc1ccc(Cl)c(C(F)(F)F)c1
2. COC(=O)C1=C(C(=O)OC)SC2(S1)C1=C(CCCC1)SC(C(=O)OC)=C2C(=O)OC
3. Cc1ccn2c(=O)cc(-c3ccccc3)nc2c1
4. CC1CCC(=O)C(C(=O)CC2CC(=O)NC(=O)C2)C1 (configuration not stated)
5. CC1CCOc2ccc(cc2)C=Nc2ccc(cc2)CCc2ccc(cc2)N=Cc2ccc(cc2)OCC1 (configuration not stated)
6. CC(C)CNC(=O)O
7. N=C(N)c1ccc(N=Nc2c(O)ccc3c2[nH]c2ccccc23)cc1

1: 3.85 µM; 2: 3.54 µM; 3: > 100 µM; 4: > 100 µM; 5: > 100 µM; 6: > 100 µM; 7: > 100 µM
